MEASUREMENT_PROTOCOL: Selectivity index, ratio of CC50 for lymphocytes (unknown origin) to IC50 for ConA-induced T lymphocytes (unknown origin) proliferation
Assay type: toxicity
CONDITION_LABEL: read-out: Ratio CC50/IC50
Please provide measured selectivity ratio for the entries that follow.

Output selectivity ratio of CO[C@H]1C[C@H](O[C@H]2[C@@H](OC)C[C@H](O[C@H]3[C@H](O)C[C@H](O[C@H]4[C@@H](O)C[C@H](O[C@@H]5[C@@H](C)O[C@@]6(C[C@H]5OC)OCO[C@@H]5C[C@H](O[C@@H](C)[C@@]7(O)CC[C@H]8[C@@H]9CC=C%10C[C@@H](O)CC[C@]%10(C)[C@H]9CC[C@@]87C)O[C@H](C)[C@H]5O6)O[C@@H]4C)O[C@@H]3C)O[C@@H]2C)O[C@H](C)[C@H]1OC(C)=O
> 136

Entry CO[C@H]1[C@@H](O)[C@@H](C)O[C@@H](O[C@H]2[C@@H](OC)C[C@H](O[C@H]3[C@@H](OC)C[C@H](O[C@H]4[C@@H](OC)C[C@H](O[C@@H]5[C@@H](C)O[C@@]6(C[C@H]5OC)OCO[C@@H]5C[C@H](O[C@@H](C)[C@@]7(O)CC[C@H]8[C@@H]9CC=C%10C[C@@H](OC=O)CC[C@]%10(C)[C@H]9CC[C@@]87C)O[C@H](C)[C@H]5O6)O[C@@H]4C)O[C@@H]3C)O[C@@H]2C)[C@@H]1O needs its selectivity ratio filled in; supply it.
347

Return reported selectivity ratio. Input compound: CO[C@H]1[C@@H](O)[C@@H](C)O[C@@H](O[C@H]2[C@@H](OC)C[C@H](O[C@H]3[C@@H](OC)C[C@H](O[C@H]4[C@@H](O)C[C@H](O[C@@H]5[C@@H](C)O[C@@]6(C[C@H]5OC)OCO[C@@H]5C[C@H](O[C@@H](C)[C@@]7(O)CC[C@H]8[C@@H]9CC=C%10C[C@@H](O)CC[C@]%10(C)[C@H]9CC[C@@]87C)O[C@H](C)[C@H]5O6)O[C@@H]4C)O[C@@H]3C)O[C@@H]2C)[C@@H]1O
> 426

Given the compound CO[C@H]1[C@@H](O)[C@@H](C)O[C@@H](O[C@H]2[C@@H](OC)C[C@H](O[C@H]3[C@H](O)C[C@H](O[C@H]4[C@@H](OC)C[C@H](O[C@@H]5[C@@H](C)O[C@@]6(C[C@H]5OC)OCO[C@@H]5C[C@H](O[C@@H](C)[C@@]7(O)CC[C@H]8[C@@H]9CC=C%10C[C@@H](O)CC[C@]%10(C)[C@H]9CC[C@@]87C)O[C@H](C)[C@H]5O6)O[C@@H]4C)O[C@@H]3C)O[C@@H]2C)[C@@H]1OC(C)=O , write its reported selectivity ratio.
706

----------
Can you tell me CC50 for the items I'm about to list?
MEASUREMENT_PROTOCOL: Cytotoxicity against lymphocytes (unknown origin) assessed as decrease in cell viability
Format: cell-based, Lymphocyte
Report the value in µM with no unit label.

Please look at this molecule and report its CC50: CO[C@H]1[C@@H](O)[C@@H](C)O[C@@H](O[C@H]2[C@@H](OC)C[C@H](O[C@H]3[C@@H](OC)C[C@H](O[C@H]4[C@@H](OC)C[C@H](O[C@@H]5[C@@H](C)O[C@@]6(C[C@H]5OC)OCO[C@@H]5C[C@H](O[C@@H](C)[C@@]7(O)CC[C@H]8[C@@H]9CC=C%10C[C@@H](OC=O)CC[C@]%10(C)[C@H]9CC[C@@]87C)O[C@H](C)[C@H]5O6)O[C@@H]4C)O[C@@H]3C)O[C@@H]2C)[C@@H]1O
146

Identify CC50 associated with the molecule CO[C@H]1[C@@H](O)[C@@H](C)O[C@@H](O[C@H]2[C@@H](OC)C[C@H](O[C@H]3[C@H](O)C[C@H](O[C@H]4[C@@H](OC)C[C@H](O[C@@H]5[C@@H](C)O[C@@]6(C[C@H]5OC)OCO[C@@H]5C[C@H](O[C@@H](C)[C@@]7(O)CC[C@H]8[C@@H]9CC=C%10C[C@@H](O)CC[C@]%10(C)[C@H]9CC[C@@]87C)O[C@H](C)[C@H]5O6)O[C@@H]4C)O[C@@H]3C)O[C@@H]2C)[C@@H]1OC(C)=O
124

Where do the numbers come from? From ChEMBL document CHEMBL4184112.
